# study-system: human activated kallikrein enzyme (plasma kallikrein) (Homo sapiens (Human), UniProt P03952)
# Sequence (P03952 391-638): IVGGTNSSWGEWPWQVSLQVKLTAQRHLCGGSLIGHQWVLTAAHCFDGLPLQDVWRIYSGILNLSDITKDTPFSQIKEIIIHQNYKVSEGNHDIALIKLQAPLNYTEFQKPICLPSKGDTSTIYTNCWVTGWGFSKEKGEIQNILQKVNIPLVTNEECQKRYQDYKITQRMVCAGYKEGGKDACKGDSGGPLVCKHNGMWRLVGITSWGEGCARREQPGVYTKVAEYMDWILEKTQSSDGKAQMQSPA
# Sequence (P03952 20-390 partner): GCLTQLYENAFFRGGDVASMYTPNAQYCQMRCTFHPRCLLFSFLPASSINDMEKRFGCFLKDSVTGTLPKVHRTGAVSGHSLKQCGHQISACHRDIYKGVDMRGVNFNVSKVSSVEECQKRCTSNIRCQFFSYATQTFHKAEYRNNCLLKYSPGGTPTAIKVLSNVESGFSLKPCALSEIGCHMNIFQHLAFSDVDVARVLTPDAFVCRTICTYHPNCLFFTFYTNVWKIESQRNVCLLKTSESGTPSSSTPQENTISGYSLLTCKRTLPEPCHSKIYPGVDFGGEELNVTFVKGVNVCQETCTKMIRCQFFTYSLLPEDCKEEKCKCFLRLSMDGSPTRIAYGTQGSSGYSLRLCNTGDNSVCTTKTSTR
# experimental-protocol: Inhibition of human activated plasma kallikrein, fluorogenic peptide substrate assay, 500 pM enzyme format
# Assay type: biochemical
# test-settings: 500 pM activated kallikrein enzyme, 300 uM Pro-Phe-Arg-7-amido-4-methylcoumarin substrate, 30 min preincubation, 10 min at RT; read-out: Primary Dose Response Assay: Average EC50
pEC50: −log10 of the molar value.
Each entry below carries its recorded pEC50.
assay-readout: pEC50

compound	measured-value
CCOC(=O)COc1cc(C2CC2)cn2cc(Cn3cc(C(=O)NCc4ncn5ccc(Cl)c(F)c45)nn3)nc12 [Example I-207]	> 9.00
O=C(NCc1ncn2ccc(Cl)c(F)c12)c1cn(Cc2cn3cc(C4CC4)cc(CC4COC4)c3n2)nn1 [Example I-186]	> 9.00
COC(=O)CCc1nn(Cc2cn3cc(C4CC4)ccc3n2)cc1C(=O)NCc1ncn2ccc(Cl)cc12 [Example I-65]	> 9.00
O=C(NCc1ncn2ccc(Cl)c(F)c12)c1cn(Cc2cn3nccc(-n4cnnc4)c3n2)nn1 [Example I-294]	7.00 to 8.00
O=C(NCc1ncn2ccc(Cl)cc12)c1cnn(Cc2cn3cc(Br)c(Cl)cc3n2)c1 [Example I-36]	7.00 to 8.00
CC1(C)CC1c1ccn2cc(Cn3cc(C(=O)NCc4ncn5ccc(Cl)cc45)cn3)nc2c1 (stereo not shown) [Example I-41]	7.00 to 8.00
O=C(NCc1ncn2ccc(Cl)cc12)c1noc(Cc2cn3cc(C4CC4)ccc3n2)n1 [Example I-177]	8.00 to 9.00
